assay: protease stability score; higher = more stable; yeast display proteolysis, trypsin and chymotrypsin;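 also: relative to predicted unfolded state with 0 unfolded-like and 1 meaning tenfold more protease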
Class definitions on protease stability score: range 1 = under 1, range 2 = from 1 up to 2, range 3 = 2 and over

> print(dat)
                             chain.sequence  category.label
1  DETTKLVEEVTRLLERAWETGDEETIYQLLDPNVKWNINGVDFHGMEHLAREIIHELRRHGFRVRFRLHHIDIQGDKARVESIEHIHIGNKHIHRRTYLFLSKVNGVWSIQEQRVE         range 2
2  SEELEHAERLDRMIAKAYSTGDEDVFRELLDPHVKIHDEDHHSHGMEWIRYHIERFKNVRSSVEVRRYHVQGNKIFSDGVFRLQVGDKDITRRVLFVVLKVDGRWIMESIHIE         range 2
3  SEIDHILKLLAELWIRLWLTGDEEIIEELADPNVRLDINGKDAHGWERLSEVLRLEIKEMRIDHHRLREIRVQGNKSEVDGRLRGTFNGKHREVDVHIEIEVVNGRFKRIRIEFR         range 2
4  DEDREMLEELTRRLAHSVETGDEDHHSHLADPNTRETIHINGRTFEHHGWEIWSELLTRLGADHMHLDRVHVVNGRVEIRSRVHVGDKEYKVHILMVVINGRLKEVSVHIH         range 1
5  DEDERHMRQTLEDYDHAVETGDWKRLRELADPDYKTDIDGVEIHGMELFWEHLRREVEKYKNVKVEFRLKRIRSIGDFMEIDGRLTLKYGDKEIRVRVIIHAIKVDGRWLFHRMIFG         range 2

Form field 'band' for SEEERLYEHAWKLYIHDFITGDEKSHSRLADPHTQMIIGDKLLIGREEFVKWMKHLLDQVKNITVEHVKIRHEHYQGDKAHIDVEEEIHFNGQRHKRRVILTILKVNGRWSIESVEYT
range 1

// query: SEKHEDAHRFYEQYLEALRTGDEDLLTELIDPHVKVEIGDKHYHGRDWMIEILRKRKERFPGLKIIIILRRMHIIGDKVFMDVEVRVHQGEKTETHRFEMIVNKINGRWLVDSIHIE
range 3

// query: DERESLLEKLLRLWIELLKTGDEDTMLKLADPDAKYHVNGKDFHGWELASRIWFEERERLGIKHVHDHEIRFQGEKTELHGILLFDGVDVKFRIIIIVFNGRLHHVIVERD
range 2

// query: SDLEMEMKRWMELWLRMFVTGDFRTFLHLADPEYKVSAEGVSSHGRDFHIKELLRWLKEIRIHDFHVKDMDVQGDKAHSDGRHNGIVDGRNRDVNVHNEIVTIDGRLRSVTIRLE
range 1

// query: HEDKKSLEDFLELLLHAIATGDEEILRHLLDPNVRLDIDGRHVVGREELLRWFREIRVKRSDIRIDHFHVQGDKIHADVTDLYDGEFNGKRHLMVLKTELILVKFNGRWHIRTMHFH
range 3

====

test: protease stability score; higher = more stable; yeast display proteolysis, trypsin and chymotrypsin;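 also: relative to predicted unfolded state with 0 unfolded-like and 1 meaning tenfold more protease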
Binary classification by protease stability score, with 1 as an inclusive lower bound for Y; all other cases are N.

Example entries and their recorded answers appear below.
> print(dat)
                             chain.sequence  category.label
1  SEVEELSRRVAEFTWEVLRTGDERLLREMIDPNVRMEIDGQEYHGMELLVEHWIKLHQKFPNLKLHLREVRVIDGVAHVRLEVRFNGVRLEIEVVITKINGRWSNTFVHETDR               Y
2  SEEEEEMRHHLEIFIESLRTGDEDEIANNADPNWINVVGDKENIGREHILTWYERFYEEIRIHDMKIRHVDVQGEKMRVEGELNKDVNGREIRTEHRWEFDIVNGRLRSLQVRVK               N

State whether the measured protease stability score reaches 1, counting equality as reaching it, for DEVTEIAERFLEEFIQHHETGDEDRIRHLMDPHVRLTQGDKTLHGREEASRVVIELAKRIDHLHIKLTTIRVQGEKVYIHTELRMEVGDKELRFHVTFIFLKVNGRWRMHSVHIE
Y

// query: SEEQHHVEKVLWDFSHALMTGDWETVEDLVDPNVRIHINGKDFHGREEFHRLVREIRVHVEINLKSVEHIDGQATADTDVIVHLDVGDKQIDRRTRTEVIQQKFDGKWLIHTIIHR
N

// query: SEKEEVLREHARRVTEWWLTGDWEEFMKNMDPNARLQIGDKTSHGREEMYRVLKEIEHRLGVDHIEIKDEKVFNGRNHLDTRLHIGDKSINIRIHIDFVNGRLKFVRIEVD
Y

// query: SDSEESSKVALELFKESVETGDERVSQELADPNYRVHYGDKTLHGREAWIRVILEMRWRTVTFKHLDFQGDKVRIEGEILGEYNGVETNFSTTLNVLKINGQWFLHSVHIQ
Y

// query: SEEEEIYHKLAEWSKRVLETGDWREWRKLADPNTRLHVHVNGRQLDHHGRELVLTIFLWLYKHLGVKHVDERDLDYYGNKIDIHVDDRYDGRTIHNRIILFIIDGKVTSTTVHIEHE
Y

// query: DEEEEYHRRVLETITRARLTGDEDLFRKNVDPDVKIEVHVGNFRFHDVGWEHLRRWIEELGFEIHHIEIKHEHVINGVMHQESERDGTFNGVRDRVKVRFIYFIVNGRIKHIRFEVE
N

// query: DEDKKFIDEYLKLLEDSIETGDWRNHNELLDPNALVLVNGVELHGRELAVTHTEKFLKHMGVKHYRLHEVDIQGEKVHIHSKAHVDGRTFDLEFISHKIDGRWLMSEVRIREN
Y

// query: DELDRTVEEVSRYFMRNYITGNEERLWEMADPHVKFISEHHESHGMEEHKKFLEEAGITNVKFDIHDQKVFNGVVVVNGKIHVNGRTVDVRLISEKFDGRWHLHIIRVD
Y

====

experiment: protease stability score; higher = more stable; yeast display proteolysis, trypsin and chymotrypsin;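 also: relative to predicted unfolded state with 0 unfolded-like and 1 meaning tenfold more protease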
Binary classification by protease stability score, with 1 as an inclusive lower bound for criterion met; all other cases are criterion not met.

> print(dat)
                             chain.sequence     category.label
1  DEIEELSNRLLELLRHFLQTGDEDMLRKLMDPHVRIDIDGQDFHGRESAVKLLRFWIDHMRWKDRRLRHVRIQGNFIEIDTIEHGEINGREHDLTTHIIASKVNGRWVLHSILFR      criterion met
2  SHEQEEARFFLDVLIEWFLTGDEEHMMKNADPNVRIEVGDKHLHGRELTYEWLKELRFKHHHVHRVTSQGDKVYYDVKVDGHINGVDRHSLEIIITLKFDGRWILKSIHVR      criterion met
3  TEDETIAELALEEFIRILETGDEDDVNRLLDPHVRVDIDGKEIHGREHVYHHLRNLGVRIKIEWKRIRVVDGKVDSDGHVIERFNGRDIEVKSQFIMRKIDGRWVVHHFTRR  criterion not met
4  DEERDEARRVLEIFIKVFRTGDWHILHELADPHVRMDVNGREFIGREDYVKFFRYEMEIFGVERIDIKIHDVHVYNGRIEVHTRQNINGKERDTHLEIHKINGQWHLRDVRIH      criterion met
5  SEEEEDRRIAVEEMLRYWHTGDEEDLNRLFDPNVRADFNGKDLVGREHMKEHYERLGYDKFDVRVKDVRVIGDKVEMDGHLRFDGVERDLHIFVIKVNGRWLVKHTEYR  criterion not met

Now take the following sequence into account.
State whether the measured protease stability score reaches 1, counting equality as reaching it, for DEEEKEAYIWLELLLEHERTGNEEEIMHLADPHTRLQFNGVESHGRERFFEHVRHKIRHMRVEIRIRNFEFQGEYAHLHGEDILRIGDKTERIDMRFVLLVVNGRIKSIHIHVH
criterion not met

====

test: protease stability score; higher = more stable; yeast display proteolysis, trypsin and chymotrypsin;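 also: relative to predicted unfolded state with 0 unfolded-like and 1 meaning tenfold more protease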
Measured Property: protease stability score
// keep it numeric: no unit symbol after the value

Record excerpt, results attached:
> print(dat)
                             chain.sequence  observed.measurement
1  TEDHEDLRRFWEYFEEAFRTGDWKALSDLADPNVKIRIGDKLHVGRDDYYEFLRELIERVDHMELRLKRVHLVGDKLHVDSTLDLHVNGKRIHSRSRFTFTKVDGKWKVESVHYE                  1.61
2  REQEEFSENAIKLWEHLTKTGDEEKMTKLMDPHARLDVNGQQLVGRELIEKIIREILKRIDHLDHIEFEHIDNQGEKVIIHSRVIFIFNGRKIDTEVHVIMIKINGQWRIESMTEK                  1.18
3  DRDEQMLRTYLHRMYESIRTGDEDSFKRLFDPNTRLHFENHHEHGWELLLRLMLRYANQADHFKLEIEDVTVQGDKAILRVHITVHVDGRDVSRSTVLYTTKVDGQWHFETVREK                  1.48
4  SEEEEMNEELIKIVLHSWKTGDEKHLEENFDPNVKLIVGDKRFIGREHLVKLIDHLIKRYPGLTIHLHDVKIQGNYVHLDTRAHFDGQTYNTRSHARKVDGRWYLTHSHIE                 0.125
5  DNESHLAEEWFRWFIDWMQTGNEEETRKFADPNVRFDINGVEIHGMKLYEDHIKHLGFRQDIRIRHIDTYDGQVDVDTEVRINVNGVEIRHKTRTNLIMIDGKLKTLTVKLE                  1.01

Below: the item to evaluate.
Value lookup for protease stability score; key = SEEEKELKTLVEELWHAWETGDEDFIHKYMDPHARLHIGDKDHHGREEIRESLRQHREHLRIEHVHRHHVKLVDGRIETHGHILGHIGDKRFETEMIIIIIVINGRIRSMKFDYR
1.03
